Where do these numbers come from? They come from ChEMBL document CHEMBL1149140.

# ASSAY COMMENT: Oral bioavailability
# Assay type: ADME, organism-based
# EXPERIMENTAL CONDITIONS: eutheria, in vivo
EXPERIMENTAL READOUT: bioavailability (%)
# number only, unit % dropped from output

Value of bioavailability reported for the compound `Cc1cccc(C)c1C(=O)N1CCC(C)(N2CCC(N(c3ccccc3)c3ccccc3)CC2)CC1` is 0

Value of bioavailability reported for the compound `Cc1cccc(C)c1C(=O)N1CCC(C)(N2CCC(N(Cc3ccccc3)c3ccccc3)CC2)CC1` is 4

Value of bioavailability reported for the compound `Cc1nc(-c2ccncc2)nc(C)c1C(=O)N1CCC(C)(N2CCC(N(c3ccccc3)c3ccccc3)CC2)CC1` is 57

Value of bioavailability reported for the compound `Cc1nc(-c2ccccc2)nc(C)c1C(=O)N1CCC(C)(N2CCC(N(c3ccccc3)c3ccccc3)CC2)CC1` is 0

Value of bioavailability reported for the compound `Cc1nc[n+]([O-])c(C)c1C(=O)N1CCC(C)(N2CCC(N(c3ccccc3)c3ccccc3)CC2)CC1` is 58
